Data credit: patent US20140179896A1

// values below are reported Binding to 1 nM KDR, %
- assayed target: T1, human vascular endothelial growth factor receptor-2 Fc chimera (KDR-Fc) (human, UniProt P35968 20-764)
- T1 construct: range 1-764; also called human VEGFR-2; hKDR; not shown: human IgG1 Fc
- T1 sequence (P35968 20-764 limits assumed, change not shown, form in doubt): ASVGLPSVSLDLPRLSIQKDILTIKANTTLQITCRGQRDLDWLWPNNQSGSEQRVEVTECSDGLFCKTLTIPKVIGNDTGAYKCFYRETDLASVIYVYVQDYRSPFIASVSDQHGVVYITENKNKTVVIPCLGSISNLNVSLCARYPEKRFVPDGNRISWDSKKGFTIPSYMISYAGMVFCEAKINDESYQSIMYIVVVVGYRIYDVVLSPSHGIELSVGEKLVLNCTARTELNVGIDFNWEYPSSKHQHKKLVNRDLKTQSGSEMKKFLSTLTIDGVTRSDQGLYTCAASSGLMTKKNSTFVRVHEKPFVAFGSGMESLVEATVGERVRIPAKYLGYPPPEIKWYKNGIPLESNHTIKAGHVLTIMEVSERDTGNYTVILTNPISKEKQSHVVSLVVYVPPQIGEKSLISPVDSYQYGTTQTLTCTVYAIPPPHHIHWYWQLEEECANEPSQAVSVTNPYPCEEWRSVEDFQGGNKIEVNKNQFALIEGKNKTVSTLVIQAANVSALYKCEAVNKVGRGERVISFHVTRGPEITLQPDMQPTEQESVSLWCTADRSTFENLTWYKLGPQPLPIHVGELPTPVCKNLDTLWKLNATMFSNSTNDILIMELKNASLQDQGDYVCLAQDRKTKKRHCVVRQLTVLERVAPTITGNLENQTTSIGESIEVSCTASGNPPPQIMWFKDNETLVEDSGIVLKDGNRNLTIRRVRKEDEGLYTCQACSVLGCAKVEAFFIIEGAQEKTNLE
- assay details: binding to 1 nM KDR-Fc, % of input; radioactive equilibrium binding (assay not given)
Give just the numeric value; % need not be written.

E2 (designed binder, Del 1-8 10Fn3 clone; Flag tag of the radioactive-assay form not included) EVVAATPTSLLISWRHPHFPTRYYRITYGETGGNSPVQEFTVPLQPPTATISGLKPGVDYTITGYAVTDGPNDRLLNIPISINYRT	53

Problem: Provide measured Binding to 1 nM KDR, % value, entry: K2 (designed binder, Del 1-8 10Fn3 clone; Flag tag of the assay form not included) EVVAATPTSLLISWRHPHFPTRYYRITYGETGGNSPVQEFTVPLQPPTATISGLKPGVDYTITGYAVTDGENGQFLLVPISINYRT
Result: 48

Problem: Provide measured Binding to 1 nM KDR, % value, entry: E9 (designed binder, Del 1-8 10Fn3 clone; Flag tag of the radioactive-assay form not included) EVVAATPTSLLISWRHPHFPTRYYRITYGETGGNSPVQEFTVPLQPPTATISGLKPGVDYTITGYAVTEERNGRTLRTPISINYRT
Result: 24

Problem: Provide measured Binding to 1 nM KDR, % value, entry: K6 (designed binder, Del 1-8 10Fn3 clone; Flag tag of the assay form not included) EVVAATPTSLLISWRHPHFPTRYYRITYGETGGNSPVQEFTVPLQPPTATISGLKPGVDYTITGYAVTDGKDGRVLLTPISINYRT
Result: 27

Problem: Provide measured Binding to 1 nM KDR, % value, entry: E28 (designed binder, Del 1-8 10Fn3 clone; Flag tag of the radioactive-assay form not included) EVVAATPTSLLISWRHPHFPTRYYRITYGETGGNSPVQEFTVPLQPPTATISGLKPGVDYTITGYAVTLERNGRELMVPISINYRT
Result: 19
